All values here come from patent US20240423961A1.

# assay_protocol: Phase 1 SAD/MAD study: plasma pharmacokinetics of Compound 1a (LC-MS-MS, noncompartmental analysis)
# Assay type: in vivo, human
# reported_conditions: human, plasma, oral, 120 mg, single dose 120 mg, healthy volunteers, geometric mean; read-out: AUClast
quantity: AUC(0-t) (ng·h/mL)

{"given_smiles": "O.O=C([O-])c1nn[nH]c1Oc1ccc(-c2ccc(C3CC(F)(F)C3)cc2)cc1.[Na+]", "reported_measurement": 41000}

---

# assay_protocol: Phase 1 SAD/MAD study: plasma pharmacokinetics of Compound 1a (LC-MS-MS, noncompartmental analysis)
# Type: in vivo, human
# reported_conditions: human, plasma, oral, 40 mg, single dose 40 mg, healthy volunteers, geometric mean; read-out: AUClast

{"given_smiles": "O.O=C([O-])c1nn[nH]c1Oc1ccc(-c2ccc(C3CC(F)(F)C3)cc2)cc1.[Na+]", "readout_units": "ng·h/mL", "AUC(0-t)": 13900}
